read-out: Human Leukocyte Antigen - DR isotype (HLADR), HLA-DRA (gene 3122); experiment: BSK_BE3C_HLADR: BioMAP Diversity Plus: BE3C Assay for Human Leukocyte Antigen - DR isotype (HLADR) Biomarker Activity (AID 2283032); conditions: primary human bronchial epithelial cells; actives raise or lower the signal
Active and inactive are the calls of the source. The calls were made as follows: active = hit-call score of the fitted dose curve at least 0.9, where 1 is the maximum; inactive = score below 0.9.
Outcome codes: active, inactive

* ClC1=C(Cl)[C@]2(Cl)[C@H]3[C@H]([C@H]4C=C[C@H]3C4)[C@@]1(Cl)C2(Cl)Cl | active
* COC[C@H](C)N(C(=O)CCl)c1c(C)csc1C | inactive
* O=Cc1cccc(Oc2ccccc2)c1 | inactive
* COc1cc(-c2ccc(N)c(OC)c2)ccc1N | inactive
* CC12CC1(C)C(=O)N(c1cc(Cl)cc(Cl)c1)C2=O (stereo unspecified) | inactive
* O=C(Nc1ccc2[nH]ccc2c1)c1cc2cc(F)ccc2n1Cc1cccc(F)c1 | active
